target: dihydrolipoamide acyltransferase (DlaT) (Mycobacterium tuberculosis); assay: DlaT inhibition (Dlat IC50); DTNB peroxidase assay with Lpd, DlaT and AhpD; format: biochemical; conditions: Table 1, Compounds A1 to A294; read-out: Dlat IC50 category
Sequence (P9WIS7 whole entry): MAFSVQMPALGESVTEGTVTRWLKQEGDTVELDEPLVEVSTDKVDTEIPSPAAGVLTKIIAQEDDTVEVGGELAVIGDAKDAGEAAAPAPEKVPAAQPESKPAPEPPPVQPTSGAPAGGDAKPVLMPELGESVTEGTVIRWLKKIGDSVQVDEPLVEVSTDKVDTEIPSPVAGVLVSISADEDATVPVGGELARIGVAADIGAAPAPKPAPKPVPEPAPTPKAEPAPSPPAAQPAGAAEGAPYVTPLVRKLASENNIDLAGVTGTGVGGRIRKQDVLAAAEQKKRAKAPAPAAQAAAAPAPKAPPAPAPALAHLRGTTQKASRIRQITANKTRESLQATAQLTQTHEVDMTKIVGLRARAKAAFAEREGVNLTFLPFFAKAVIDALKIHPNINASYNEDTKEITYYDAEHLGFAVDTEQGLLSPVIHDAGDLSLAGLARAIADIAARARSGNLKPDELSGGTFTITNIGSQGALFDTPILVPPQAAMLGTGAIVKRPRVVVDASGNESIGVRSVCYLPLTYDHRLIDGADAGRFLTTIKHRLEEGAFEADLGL
pIC50: −log10 of the molar value.
measurement type: pIC50

Query block: Name the reported pIC50 value associated with the compound CS(=O)(=O)c1ccc(-c2ccc(C=C3SC(=S)N(c4cccc(C(=O)O)c4)C3=O)o2)cc1
Result block: > 5.00

Query block: Then what about the compound O=C1C(=Cc2ccc(-c3ccccc3Cl)o2)SC(=S)N1c1ccc(O)cc1 ?
Result block: > 5.00

Query block: Query COc1ccc(-c2ccc(C=C3SC(=S)N(c4cccc(C(=O)O)c4)C3=O)o2)c(OC)c1 next
Result block: > 5.00

Query block: Do the same for CN(C)Cc1ccc(-c2ccc(C=C3SC(=S)N(c4cccc(C(=O)O)c4)C3=O)o2)cc1 please
Result block: 4.40 to 4.96

Query block: Field entry: O=C(O)c1cccc(N2C(=O)C(=Cc3ccc(-c4ccc(C5CCCC5)cc4)o3)SC2=S)c1
Result block: > 5.00

Query block: Please give the result for Cc1ccc(-c2cccc(C=C3SC(=S)N(c4cc(C(=O)O)ccc4F)C3=O)c2)cc1 too.
Result block: > 5.00

Query block: Note, next up: O=C(O)c1cc(N2C(=O)C(=Cc3ccc(-c4ccc(Cl)cc4)o3)SC2=S)ccc1Cl
Result block: > 5.00

Query block: Repeat for the following compound: NS(=O)(=O)c1cccc(N2C(=O)C(=Cc3ccc(-c4ccccc4Cl)o3)SC2=S)c1
Result block: 4.40 to 4.96

Each recorded value in this set is attributed to patent US8338465B2.
